For each record, write down the corresponding TL1A Binding Level (Late).
# assayed target: T1, human TL1A extracellular domain with N-terminal HIS and FLAG tag (human, UniProt O95150 72-251)
# T1 construct: the whole entry is named; also called TNFSF15
# T1 sequence: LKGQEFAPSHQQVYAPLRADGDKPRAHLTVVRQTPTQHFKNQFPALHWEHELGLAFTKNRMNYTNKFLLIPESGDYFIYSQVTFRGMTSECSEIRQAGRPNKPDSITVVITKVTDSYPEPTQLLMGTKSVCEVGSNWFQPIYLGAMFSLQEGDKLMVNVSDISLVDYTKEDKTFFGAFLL
# procedure details: SPR Run 7, antibody on Protein A, TL1A 5 ug/mL, timepoint 220

{"columns": ["binder", "data value"],
 "data": [
  ["320-523 (antibody, human IgG1, name in Kabat numbering, V domains shown, full-length human IgG1, lambda) VH: QVQLVQSGAEVKKPGASVKVSCKASGYTFTSYDINWVRQAPGQGLEWMGWLNPNAGNTGYAQKFQGRVTMTADRSTSTAYMELSSLRSEDTAVYYCAREVPETAAFEYWGQGTLVTVSS VL: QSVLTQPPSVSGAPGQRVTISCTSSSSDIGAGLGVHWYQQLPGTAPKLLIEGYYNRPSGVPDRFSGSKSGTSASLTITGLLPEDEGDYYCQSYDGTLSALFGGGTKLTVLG", "82 RU"]
]}

I have this binder here, 320-493 (antibody, human IgG1, name in Kabat numbering, V domains shown, full-length human IgG1, lambda) VH: QVQLVQSGAEVKKPGASVKVSCKASGYTFTSYDINWVRQAPGQGLEWMGWDNPNSGNTGYAQKFQGRVTMTADRSTSTAYMELSSLRSEDTAVYYCAREVPETAAFEYWGQGTLVTVSS VL: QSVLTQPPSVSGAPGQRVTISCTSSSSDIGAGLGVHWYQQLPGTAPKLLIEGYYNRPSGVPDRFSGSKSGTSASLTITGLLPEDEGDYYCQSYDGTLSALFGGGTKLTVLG , and I need its recorded TL1A Binding Level (Late).
46 RU
